Where do the numbers come from? From PubChem BioAssay (NCI).

- Tested on: OVCAR-8 ovarian
- measurementProtocol: NCI-60 one-dose screen, 48 h (100 = growth as untreated, 0 = no growth, -100 = all killed)
- runConditions: 10 µM
About 83,000 compounds went through this panel and 20% of them were active in at least one assay; those are over-represented in the sample as a whole.
Returns one of Yes or No; Yes when growth is >= 70%.

Please tell me: is the compound Cc1ccc(CNc2nc3ccc(OC/C(=C/F)CN)cc3o2)cn1 at or over 70% in terms of growth?
Yes

Identify whether the reported growth of the following compound is 70% or greater: NC1CCc2cc(O)c(O)cc2C1 (centres undefined)
Yes

Reported growth reaches at least 70% for C=C1[C@@H](C)C2[C@H](Cc3ccccc3)NC(=O)[C@]23[C@H](OC(C)=O)/C=C/[C@@](C)(O)C(=O)[C@@H](C)C/C=C/[C@H]3[C@@H]1O (some centres undefined) ?
Yes

***
Has CC(C)(O)/C=C/C(=O)[C@](C)(O)[C@H]1[C@H](O)C[C@@]2(C)[C@H]3CC=C4[C@@H](C[C@H](O)C(=O)C4(C)C)[C@]3(C)C(=O)C[C@]12C a recorded growth greater than or equal to 70%?
No

For this compound, is measured growth 70% or higher? CC(=O)O[C@@H]1C[C@H]2O[C@@H]3C=C(C)CC[C@]3(C)[C@]1(C)[C@]21CO1
No
